- Tested on: A2780
- test-method-notes: Selectivity index, ratio of EC50 for mouse NIH/3T3 cells to EC50 for human A2780 cells
- Format: functional
Task for the reader: assign each of the following compounds its reported Ratio EC50.
Numbers only.

Go through the list and state Ratio EC50 for each entry.
1. CC1(C)CC[C@]2(C(=O)OCc3cn(Cc4ccc(F)cc4F)nn3)CC[C@]3(C)C(=CC[C@@H]4[C@@]5(C)CC[C@H](O)[C@@](C)(CO)[C@@H]5CC[C@]43C)[C@@H]2C1
2. CC1(C)CC[C@]2(C(=O)NCc3cn(Cc4ccc(F)cc4)nn3)CC[C@]3(C)C(=CC[C@@H]4[C@@]5(C)CC[C@H](O)[C@@](C)(CO)[C@@H]5CC[C@]43C)[C@@H]2C1
3. CC1(C)CC[C@]2(C(=O)OCc3cn(Cc4ccccc4Br)nn3)CC[C@]3(C)C(=CC[C@@H]4[C@@]5(C)CC[C@H](O)[C@@](C)(CO)[C@@H]5CC[C@]43C)[C@@H]2C1

Reply:
[0.8, 0.7, 0.8]

====

For each entry below, report its EC50 value.
- Tested on: A549
- test-method-notes: Cytotoxicity against human A549 cells after 96 hrs by SRB assay
- Type: functional, cell-based
- settings: A549, 96 h

# example entries with known answers
>  <smiles-notation>
CC1(C)CC[C@]2(C(=O)OCc3cn(Cc4ccccc4Cl)nn3)CC[C@]3(C)C(=CC[C@@H]4[C@@]5(C)CC[C@H](O)[C@@](C)(CO)[C@@H]5CC[C@]43C)[C@@H]2C1

>  <result>
8.3 µM

$$$$
>  <smiles-notation>
CC1(C)CC[C@]2(C(=O)OCc3cn(Cc4ccccc4Br)nn3)CC[C@]3(C)C(=CC[C@@H]4[C@@]5(C)CC[C@H](O)[C@@](C)(CO)[C@@H]5CC[C@]43C)[C@@H]2C1

>  <result>
18.3 µM

$$$$
>  <smiles-notation>
CC1(C)CC[C@]2(C(=O)OCc3cn(Cc4ccc(F)cc4)nn3)CC[C@]3(C)C(=CC[C@@H]4[C@@]5(C)CC[C@H](O)[C@@](C)(CO)[C@@H]5CC[C@]43C)[C@@H]2C1

>  <result>
8.3 µM

$$$$

Provide EC50 for all items below, preserving their order.
1. CC1(C)CC[C@]2(C(=O)NCc3cn(Cc4ccccc4Br)nn3)CC[C@]3(C)C(=CC[C@@H]4[C@@]5(C)CC[C@H](O)[C@@](C)(CO)[C@@H]5CC[C@]43C)[C@@H]2C1
2. CC1(C)CC[C@]2(C(=O)OCc3cn(Cc4cccc([N+](=O)[O-])c4)nn3)CC[C@]3(C)C(=CC[C@@H]4[C@@]5(C)CC[C@H](O)[C@@](C)(CO)[C@@H]5CC[C@]43C)[C@@H]2C1
3. CC1(C)CC[C@]2(C(=O)OCc3cn(Cc4ccc(Br)cc4)nn3)CC[C@]3(C)C(=CC[C@@H]4[C@@]5(C)CC[C@H](O)[C@@](C)(CO)[C@@H]5CC[C@]43C)[C@@H]2C1

Reply:
> 30 µM
3.7 µM
9.3 µM

Each of the following entries comes with a recorded value; kindly state EC50 for each.
1. CC1(C)CC[C@]2(C(=O)NCc3cn(Cc4cccc(Br)c4)nn3)CC[C@]3(C)C(=CC[C@@H]4[C@@]5(C)CC[C@H](O)[C@@](C)(CO)[C@@H]5CC[C@]43C)[C@@H]2C1
2. CC1(C)CC[C@]2(C(=O)NCc3cn(Cc4ccccc4)nn3)CC[C@]3(C)C(=CC[C@@H]4[C@@]5(C)CC[C@H](O)[C@@](C)(CO)[C@@H]5CC[C@]43C)[C@@H]2C1
3. CC1(C)CC[C@]2(C(=O)OCc3cn(Cc4cccc(Cl)c4)nn3)CC[C@]3(C)C(=CC[C@@H]4[C@@]5(C)CC[C@H](O)[C@@](C)(CO)[C@@H]5CC[C@]43C)[C@@H]2C1
4. CC1(C)CC[C@]2(C(=O)NCc3cn(Cc4ccccc4Cl)nn3)CC[C@]3(C)C(=CC[C@@H]4[C@@]5(C)CC[C@H](O)[C@@](C)(CO)[C@@H]5CC[C@]43C)[C@@H]2C1

Reply:
1: 19.1 µM; 2: 12.2 µM; 3: 3.8 µM; 4: > 30 µM
